system.name: T1, PSMA Fab (biotinylated (site not stated))
T1 construct: Biotinylated PSMA Fab captured on neutravidin plates for the clonal phage ELISA; also called Anti-PSMA Fab; 006 PSMA Fab
protocol.description: clonal phage ELISA on captured PSMA Fab pre-incubated with PSMA antigen as competitor, anti-M13 HRP detection;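 further: crude clonal phage supernatants tested by ELISA, wells first treated with blocking buffer plus PSMA antigen, bound phage read out via HRP-linked anti-M13 antibody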
Measured Phage binding ELISA signal, Anti-PSMA Fab in presence of PSMA antigen, listed per entry for reference.
readout.kind: Phage binding ELISA signal, Anti-PSMA Fab in presence of PSMA antigen

EYRECVPDWMCSGF [Phage-3980]
0.0722
QQVRCVPDWMCSGF [Phage-3974]
0.0755
GFRTCVPSWMCTGF [Phage-3978]
0.0906
QMSMCKPAWMCTGL [Phage-3973]
0.0909
LSVECIPVWMCNGF [Phage-3979]
0.0832
SYMRCEPEWMCSGL [Phage-3970]
0.121
EIGACVPDWMCRGF [Phage-3968]
0.0694
PAQICMPAWMCHGF [Phage-3976]
0.0646
DARMCIPMWMCQAF [Phage-3977]
0.0713
GGVMCRPMWMCAGF [Phage-3967]
0.0836
VQTRCVPAWMCDGF [Phage-3971]
0.0744
EAKWCTPQWMCGGF [Phage-3975]
0.0703
STLLCTPEWMCFGM [Phage-3969]
0.0553
DARLCTPLWMCTGF [Phage-3972]
0.0622
